tested on: DU145 cells; assay: Antiproliferative assay in DU145 cells, WST-1 cell proliferation assay, 96 hours (GI50); format: cell-based; settings: Homo sapiens, DU-145, 96 hours post-treatment, triplicate
For each of the molecules below, state its GI50.

Exercise: Please report the measured GI50 for COc1cc2c(cc1OCc1ccccc1)CCN(Cc1cccc(F)c1)C2
Key: > 100 µM

Exercise: Name the recorded GI50 of the molecule listed here: COc1cccc(CN2CCc3cc(O)c(OC)cc3C2)c1
Key: > 100 µM

Exercise: Identify measured GI50 associated with COc1cccc(C(=O)N2CCc3cc(O)c(OC)cc3C2=O)c1
Key: < 10 µM

Measured values drawn from patent US8394825B2 for this set.
